system: LPA receptors (LPA1/2/3); test: LPA receptor agonist/antagonist activity (Table 4); format: cell-based
property: Activity

Consider the following illustrative entries.
Input line: Please report the recorded Activity for BP(=O)(O)OCCCCCCCC .
Output line: LPA2 agonist

Input line: Please report the recorded Activity for BP(=O)(O)OCCCCCCCCCCCCCCCCCC .
Output line: LPA2 agonist

Input line: Please report the recorded Activity for CCCCCCCCCCCCCCC(C(=O)O)C(=O)O .
Output line: LPA2 agonist

Input line: Please report the recorded Activity for CCCCCCC1CC1CCCCCCCCCCOP([O-])(O)=S.[K+] (centres unmarked) .
Output line: LPA2 agonist

More entries:
Input line: Please report the recorded Activity for BP(=O)(O)OCCCCCCCCCCCCCC .
Output line: LPA2 agonist

Input line: Please report the recorded Activity for CCCCCCCCC1CC1CCCCCCCCOP(O)(O)=S.N (centres unmarked) .
Output line: LPA2 agonist

Input line: Please report the recorded Activity for CCCCCC1CC1CC1CC1CCCCCCCCOP([O-])(O)=S.[K+] (centres unmarked) .
Output line: LPA2 agonist

Input line: Please report the recorded Activity for CCCCCCCCC1CC1CCCCCCCCCCOP([O-])(O)=S.[K+] (centres unmarked) .
Output line: LPA2 agonist

Input line: Please report the recorded Activity for CCCCCCC1CC1CCCCCCCCOP(O)(O)=S.N (centres unmarked) .
Output line: LPA2 agonist

Input line: Please report the recorded Activity for [K+].[O-]P(O)(=S)OCCCCCCCCC1CC1 .
Output line: LPA2 agonist

Input line: Please report the recorded Activity for CCCCC/C=C\C/C=C\CCCCCCCCOP(O)(O)=S .
Output line: LPA2 agonist

Input line: Please report the recorded Activity for CCCCCCCCCCCCCCCCCCC(COP(O)(O)=S)COP(O)(O)=S.N .
Output line: LPA3 agonist

Input line: Please report the recorded Activity for CCCCCCCC/C=C/CCCCCCCCOP(O)(O)=S.N .
Output line: LPA3 agonist
